# TESTED_SYSTEM: HLA-B*51:01
# PROTOCOL_NOTES: IEDB peptide-MHC binding, purified MHC/direct/fluorescence; filed as Kd, often an IC50 or EC50 that approximates it; bounds were set here for any values at or beyond the usual limits of such assays
# ASSAY_CONTEXT: source organism: Encephalitozoon cuniculi GB-M1
MEASUREMENT_LABEL: Kd

Ask: Entry "FSFFMNENF" has what Kd?
Result: ≥ 20 µM

* * *

# TESTED_SYSTEM: HLA-B*44:02
# PROTOCOL_NOTES: IEDB peptide-MHC binding, purified MHC/competitive/radioactivity; filed as Kd, often an IC50 or EC50 that approximates it; bounds were set here for any values at or beyond the usual limits of such assays
# ASSAY_CONTEXT: source organism: Homo sapiens
MEASUREMENT_LABEL: pKd
Formally, pKd is defined as -log10 of the concentration c, with c in mol/L.

Ask: Please tell me: pKd of "EEKLSVVLF" , system HLA-B*44:02?
Result: 6.84
